I'd appreciate it if you could supply IC50 values for the items below.
target: c-Met (cytoplasmic domain) (Homo sapiens); construct: 10 ng/mL c-Met (cytoplasmic domain, Invitrogen Corporation #PV3143); purchased Invitrogen Corporation PV3143; assay: c-Met Kinase Assay (same methods as for ALK, with modifications); type: biochemical; settings: 1 μM ATP (Km level), 10 ng/mL c-Met; read-out: cMet Activity (c-Met kinase inhibition, IC50 class)
Sequence (P08581 956-1390 limits assumed): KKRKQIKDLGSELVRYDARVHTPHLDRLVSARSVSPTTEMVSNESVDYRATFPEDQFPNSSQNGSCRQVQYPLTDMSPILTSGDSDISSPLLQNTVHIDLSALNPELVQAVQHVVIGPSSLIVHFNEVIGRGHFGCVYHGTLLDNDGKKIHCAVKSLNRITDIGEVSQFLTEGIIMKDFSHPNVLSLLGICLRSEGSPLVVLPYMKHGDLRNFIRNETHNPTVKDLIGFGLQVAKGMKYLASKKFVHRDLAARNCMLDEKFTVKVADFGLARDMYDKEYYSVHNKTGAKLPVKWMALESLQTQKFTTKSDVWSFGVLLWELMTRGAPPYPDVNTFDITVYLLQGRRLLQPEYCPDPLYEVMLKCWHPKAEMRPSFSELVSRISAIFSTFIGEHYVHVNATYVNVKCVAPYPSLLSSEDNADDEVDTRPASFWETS

Here's what some known entries look like.
compound	IC50
C#CCNC(=O)c1cccc(F)c1Nc1nc(Nc2ccc3c(c2)NC(=O)C(NC(C)=O)CC3(C)C)ncc1Cl (centres unmarked)	< 0.1 µM
COc1cc2c(cc1Nc1ncc(Cl)c(N[C@@H]3CCCC[C@H]3NS(C)(=O)=O)n1)CCN(CCS(C)(=O)=O)CC2	> 10 µM
COCCN1CCc2ccc(Nc3ncc(Cl)c(Nc4ccccc4OCC(N)=O)n3)cc2CC1	0.1 to 1 µM

Go through the items and report each one's IC50.
1. COc1cc2c(cc1Nc1ncc(Cl)c(Nc3ccccc3S(=O)(=O)N(C)C)n1)CCN(CC(=O)N1CCCC1)CC2
2. C#CCNC(=O)c1ccccc1Nc1nc(Nc2ccc3c(c2)CCN(CCOC)CC3)ncc1Cl
3. CNC(=O)c1ccc(Nc2nc(Nc3cc4c(cc3OC)CCN(C(COC)COC)CC4)ncc2Cl)c(OC)c1
4. COCCN1CCc2ccc(Nc3ncc(Cl)c(Nc4ccc5[nH]c(C(F)(F)F)nc5c4)n3)cc2CC1
5. CCN1C(=O)[C@H](NC(=O)CN(C)C)CCc2c1ccc(Nc1ncc(Cl)c(N[C@H]3[C@@H](C(N)=O)[C@@H]4C=C[C@H]3C4)n1)c2OC (single isomer, unassigned)
6. COc1cc2c(cc1Nc1ncc(Cl)c(Nc3ccccc3S(=O)(=O)N3CCC(O)C3)n1)CCC(NCCO)CC2 (centres unmarked)

["1 to 10 µM", "< 0.1 µM", "> 10 µM", "1 to 10 µM", "> 10 µM", "1 to 10 µM"]

Go through the items and report each one's IC50.
1. CN1C(=O)CCCc2cc(Nc3ncc(Cl)c(Nc4c(F)cccc4C(=O)NCCC#N)n3)ccc21
2. COCCN1CCc2ccc(Nc3ncc(Cl)c(N[C@@H]4CCC[C@H](NS(C)(=O)=O)C4)n3)cc2CC1 (relative stereo)

1. < 0.1 µM
2. > 10 µM

Go through the items and report each one's IC50.
1. CCN1C(=O)[C@H](N)CCc2c1ccc(Nc1ncc(Cl)c(N[C@H]3[C@@H](C(N)=O)[C@@H]4C=C[C@H]3C4)n1)c2OC (single isomer, unassigned)
2. CNC(=O)CN1CCc2ccc(Nc3ncc(Cl)c(Nc4ccc(N5CCOCC5)cc4OC)n3)cc2CC1

["> 10 µM", "1 to 10 µM"]

Go through the items and report each one's IC50.
1. COCCN1CCc2ccc(Nc3ncc(Cl)c(Nc4ccccc4C(=O)NCCN4CCN(C)CC4)n3)cc2CC1
2. CCOc1ccccc1Nc1nc(Nc2cc3c(cc2OC)CCN(CC(=O)N(C)C)CC3)ncc1Cl
3. CCN1C(=O)C(NC(=O)COC)CCc2c1ccc(Nc1ncc(Cl)c(Nc3ccccc3S(=O)(=O)N(C)C)n1)c2OC (centres unmarked)
4. CCNC(=O)c1cccc(F)c1Nc1nc(Nc2ccc3c(c2)CCN(CC(=O)NC)CC3)ncc1Cl

["1 to 10 µM", "> 10 µM", "> 10 µM", "< 0.1 µM"]

Taken from patent US8148391B2.
